- Target: Zap1 (UniProt P47043)
- Sequence: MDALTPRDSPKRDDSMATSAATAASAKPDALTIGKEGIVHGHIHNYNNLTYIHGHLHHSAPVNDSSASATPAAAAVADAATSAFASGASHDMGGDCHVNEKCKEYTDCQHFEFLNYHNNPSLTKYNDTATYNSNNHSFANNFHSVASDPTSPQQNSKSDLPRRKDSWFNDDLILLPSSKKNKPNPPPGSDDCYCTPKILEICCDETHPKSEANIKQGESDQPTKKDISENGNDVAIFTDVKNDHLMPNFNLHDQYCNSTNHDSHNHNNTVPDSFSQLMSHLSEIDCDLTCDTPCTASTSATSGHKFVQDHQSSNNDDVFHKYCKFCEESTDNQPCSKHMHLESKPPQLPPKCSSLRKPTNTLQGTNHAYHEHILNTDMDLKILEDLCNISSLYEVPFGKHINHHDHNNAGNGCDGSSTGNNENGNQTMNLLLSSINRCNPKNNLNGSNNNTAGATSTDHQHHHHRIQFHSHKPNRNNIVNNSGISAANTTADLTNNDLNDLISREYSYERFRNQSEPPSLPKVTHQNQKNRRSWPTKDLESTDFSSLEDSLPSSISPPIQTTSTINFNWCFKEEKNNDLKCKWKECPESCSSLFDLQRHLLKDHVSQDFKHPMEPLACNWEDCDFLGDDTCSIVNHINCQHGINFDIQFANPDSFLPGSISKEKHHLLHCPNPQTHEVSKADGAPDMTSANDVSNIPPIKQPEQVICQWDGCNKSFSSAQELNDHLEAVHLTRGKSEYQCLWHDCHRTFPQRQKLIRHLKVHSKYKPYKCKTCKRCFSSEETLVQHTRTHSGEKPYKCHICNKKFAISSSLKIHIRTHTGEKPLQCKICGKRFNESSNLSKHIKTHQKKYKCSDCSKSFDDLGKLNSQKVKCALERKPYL
- Method notes: PBM E-score (8-mer binding enrichment) (E-score (-0.5 to 0.5)); higher = stronger / more preferred TF binding
- Test conditions: protein concentration: 200 nM; construct: GST-full length
In all, about 33,000 sequences were measured (“E-score (-0.5 to 0.5)”: median about -0.021, highest 2% from about 0.32 on). The sample holds the highest values, similar sequences and a random draw of the others, so the mix is not that of the screen.
// thresholds for PBM E-score classes: one: < 0.08; two: ≥ 0.08 and < 0.2; three: ≥ 0.2

INPUT: Hi there! Could you help me figure out the category for "CAGTTATC" please?
OUTPUT: one

INPUT: Hi there! Could you help me figure out the category for "CGGGTTAA" please?
OUTPUT: three

INPUT: Hi there! Could you help me figure out the category for "ACGGGTCG" please?
OUTPUT: two

INPUT: Hi there! Could you help me figure out the category for "AACCAACA" please?
OUTPUT: three

INPUT: Hi there! Could you help me figure out the category for "GCCGCACC" please?
OUTPUT: one

INPUT: Hi there! Could you help me figure out the category for "AGGGGTCG" please?
OUTPUT: one

INPUT: Hi there! Could you help me figure out the category for "GTGGTAAA" please?
OUTPUT: one

INPUT: Hi there! Could you help me figure out the category for "CTGGTAAC" please?
OUTPUT: three

INPUT: Hi there! Could you help me figure out the category for "ACGCATAC" please?
OUTPUT: one

INPUT: Hi there! Could you help me figure out the category for "GGGGTCAA" please?
OUTPUT: three

INPUT: Hi there! Could you help me figure out the category for "ACCAAGGG" please?
OUTPUT: two

INPUT: Hi there! Could you help me figure out the category for "GGTCATTA" please?
OUTPUT: three

INPUT: Hi there! Could you help me figure out the category for "GAGTCACC" please?
OUTPUT: one

INPUT: Hi there! Could you help me figure out the category for "GGTCATGA" please?
OUTPUT: three

INPUT: Hi there! Could you help me figure out the category for "AGCCACCC" please?
OUTPUT: one

INPUT: Hi there! Could you help me figure out the category for "ATGGTAAA" please?
OUTPUT: two

INPUT: Hi there! Could you help me figure out the category for "TAGGGTCA" please?
OUTPUT: three

INPUT: Hi there! Could you help me figure out the category for "CGACCTAC" please?
OUTPUT: one

INPUT: Hi there! Could you help me figure out the category for "AAATATAT" please?
OUTPUT: three

INPUT: Hi there! Could you help me figure out the category for "ACCTGACT" please?
OUTPUT: two

INPUT: Hi there! Could you help me figure out the category for "GCGGTCAC" please?
OUTPUT: three

INPUT: Hi there! Could you help me figure out the category for "AAAGGTAC" please?
OUTPUT: three

INPUT: Hi there! Could you help me figure out the category for "GCAGGCTA" please?
OUTPUT: one

INPUT: Hi there! Could you help me figure out the category for "CGGTTATC" please?
OUTPUT: three

INPUT: Hi there! Could you help me figure out the category for "AATAGACG" please?
OUTPUT: one

INPUT: Hi there! Could you help me figure out the category for "AAAGGTAA" please?
OUTPUT: three

INPUT: Hi there! Could you help me figure out the category for "ATGGGTCC" please?
OUTPUT: three

INPUT: Hi there! Could you help me figure out the category for "GGGTCACC" please?
OUTPUT: three

INPUT: Hi there! Could you help me figure out the category for "AACAGATG" please?
OUTPUT: one

INPUT: Hi there! Could you help me figure out the category for "CGGGTTGA" please?
OUTPUT: three

INPUT: Hi there! Could you help me figure out the category for "TGTCATAA" please?
OUTPUT: two

INPUT: Hi there! Could you help me figure out the category for "GGTAGCAA" please?
OUTPUT: one

INPUT: Hi there! Could you help me figure out the category for "GGGGTCAC" please?
OUTPUT: three

INPUT: Hi there! Could you help me figure out the category for "CTCCTGTA" please?
OUTPUT: one

INPUT: Hi there! Could you help me figure out the category for "CCTGTGAG" please?
OUTPUT: two

INPUT: Hi there! Could you help me figure out the category for "CCAGGTAC" please?
OUTPUT: two

INPUT: Hi there! Could you help me figure out the category for "ATCTTAAC" please?
OUTPUT: two

INPUT: Hi there! Could you help me figure out the category for "ATACCAAA" please?
OUTPUT: two

INPUT: Hi there! Could you help me figure out the category for "AGGAACAA" please?
OUTPUT: one

INPUT: Hi there! Could you help me figure out the category for "GGGTTTAC" please?
OUTPUT: three

INPUT: Hi there! Could you help me figure out the category for "GAGGGTCC" please?
OUTPUT: two

INPUT: Hi there! Could you help me figure out the category for "CTGATTCA" please?
OUTPUT: one

INPUT: Hi there! Could you help me figure out the category for "TCCTTAAA" please?
OUTPUT: two

INPUT: Hi there! Could you help me figure out the category for "AGGCTAAC" please?
OUTPUT: one

INPUT: Hi there! Could you help me figure out the category for "ACAGTATG" please?
OUTPUT: one

INPUT: Hi there! Could you help me figure out the category for "GAAGGTAC" please?
OUTPUT: two

INPUT: Hi there! Could you help me figure out the category for "GGAGTTAC" please?
OUTPUT: two

INPUT: Hi there! Could you help me figure out the category for "CGGTCACC" please?
OUTPUT: three

INPUT: Hi there! Could you help me figure out the category for "AAGGGTCG" please?
OUTPUT: three

INPUT: Hi there! Could you help me figure out the category for "AGATGCGG" please?
OUTPUT: one

INPUT: Hi there! Could you help me figure out the category for "CGAGAAAC" please?
OUTPUT: two

INPUT: Hi there! Could you help me figure out the category for "AGTGCGAA" please?
OUTPUT: one

INPUT: Hi there! Could you help me figure out the category for "AGGTATAT" please?
OUTPUT: two

INPUT: Hi there! Could you help me figure out the category for "AGGTCAAC" please?
OUTPUT: two

INPUT: Hi there! Could you help me figure out the category for "AGGTCACT" please?
OUTPUT: three

INPUT: Hi there! Could you help me figure out the category for "CAGAGATC" please?
OUTPUT: one

----------
- Target: Zap1 (UniProt P47043)
- Sequence: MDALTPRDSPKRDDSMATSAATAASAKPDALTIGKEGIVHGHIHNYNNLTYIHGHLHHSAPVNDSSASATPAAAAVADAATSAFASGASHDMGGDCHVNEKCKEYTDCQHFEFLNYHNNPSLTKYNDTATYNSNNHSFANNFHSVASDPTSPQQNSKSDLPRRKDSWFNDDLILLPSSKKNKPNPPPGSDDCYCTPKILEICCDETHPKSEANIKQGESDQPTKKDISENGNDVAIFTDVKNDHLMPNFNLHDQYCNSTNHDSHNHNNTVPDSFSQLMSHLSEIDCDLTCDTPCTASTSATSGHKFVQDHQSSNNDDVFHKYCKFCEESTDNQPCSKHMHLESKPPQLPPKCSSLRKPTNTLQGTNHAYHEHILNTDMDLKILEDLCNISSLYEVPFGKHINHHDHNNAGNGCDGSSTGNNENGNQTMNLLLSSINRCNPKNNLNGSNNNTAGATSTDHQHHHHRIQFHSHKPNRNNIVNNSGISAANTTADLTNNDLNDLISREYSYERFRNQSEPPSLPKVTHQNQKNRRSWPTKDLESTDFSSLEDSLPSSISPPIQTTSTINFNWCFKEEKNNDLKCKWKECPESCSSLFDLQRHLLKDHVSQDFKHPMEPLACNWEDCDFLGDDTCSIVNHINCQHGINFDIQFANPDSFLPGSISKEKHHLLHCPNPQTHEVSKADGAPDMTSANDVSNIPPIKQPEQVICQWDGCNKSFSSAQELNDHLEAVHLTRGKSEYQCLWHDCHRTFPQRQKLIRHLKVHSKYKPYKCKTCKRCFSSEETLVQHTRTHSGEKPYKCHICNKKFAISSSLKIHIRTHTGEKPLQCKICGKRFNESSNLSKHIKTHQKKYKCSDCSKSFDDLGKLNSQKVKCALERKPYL
- Method notes: PBM E-score (8-mer binding enrichment) (E-score (-0.5 to 0.5)); higher = stronger / more preferred TF binding
- Test conditions: protein concentration: 200 nM; construct: GST-full length
In all, about 33,000 sequences were measured (“E-score (-0.5 to 0.5)”: median about -0.021, highest 2% from about 0.32 on). The entries come from a sample that favours the highest values as a whole.
Give measured PBM E-score for each item. Keep answers brief.

INPUT: So what's the measured PBM E-score for this one? "CGGACCCA"
OUTPUT: 0.195

INPUT: So what's the measured PBM E-score for this one? "CGGGTTTA"
OUTPUT: 0.205

INPUT: So what's the measured PBM E-score for this one? "CGGTCACG"
OUTPUT: 0.203
